This listing pairs compounds with measured IC50.
# EXPERIMENTAL SYSTEM: ERα (Homo sapiens)
# Construct: employs a full length and native ER (comprised of an ER LBD and an ER DBD)
# Sequence (P03372 1-595): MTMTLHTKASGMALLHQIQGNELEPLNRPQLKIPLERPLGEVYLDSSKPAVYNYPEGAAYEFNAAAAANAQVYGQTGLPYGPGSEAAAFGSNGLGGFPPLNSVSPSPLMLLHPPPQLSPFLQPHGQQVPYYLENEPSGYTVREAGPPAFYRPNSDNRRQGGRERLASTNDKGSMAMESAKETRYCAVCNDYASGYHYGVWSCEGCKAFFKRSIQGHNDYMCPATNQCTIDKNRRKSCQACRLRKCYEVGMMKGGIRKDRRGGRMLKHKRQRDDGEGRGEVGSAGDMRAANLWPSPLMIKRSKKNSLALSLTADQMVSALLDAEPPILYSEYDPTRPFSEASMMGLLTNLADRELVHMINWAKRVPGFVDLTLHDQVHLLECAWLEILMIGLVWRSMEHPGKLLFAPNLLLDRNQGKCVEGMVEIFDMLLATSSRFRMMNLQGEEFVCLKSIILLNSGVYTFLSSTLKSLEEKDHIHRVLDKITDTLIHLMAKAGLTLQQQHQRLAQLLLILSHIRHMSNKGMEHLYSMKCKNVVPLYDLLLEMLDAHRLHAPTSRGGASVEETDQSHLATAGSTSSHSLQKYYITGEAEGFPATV
# ASSAY COMMENT: Cell-based luciferase reporter assay, full length ERα, agonist mode
# RECORDED CONDITIONS: full length ERα, 22 h, read-out: ERα agon. IC50
MEASURED PARAMETER: IC50

>>> measured("C=C1CCC(c2ccc(O)cc2)CC1 [Compound 7, 4-(4-Hydroxyphenyl) methylenecyclohexane]")
"> 10 µM"
>>> measured("CC1CCC(c2ccc(O)cc2)CC1 (mixture of isomers)")
"> 10 µM"
>>> measured("OCCC1CCC(c2ccc(O)cc2)CC1 (stereo not shown) [Compound 25, 4-[4-(2-Hydroxyethyl)cyclohexyl] phenol]")
"> 50 µM"
>>> measured("OCC1CC=C(c2ccc(O)cc2)CC1 (racemic)")
"> 20 µM"
